Tested on: Leptosphaeria nodorum (LEPTNO)
methodDescription: Isolated metal-hydrazone complexes versus parent hydrazones, in vitro, Leptosphaeria nodorum (Example 31, Table 7)
Type: cell-based
experimentalConditions: Parastagonospora nodorum; 0.1 μg/mL; copper-minus medium; 72 h
Rule: inhibition at 0.1 µg/mL under 4% gives NO, otherwise YES.

- COc1cccc(/C(C)=N/NC(=O)c2cccc(C)c2)c1O: NO
- O=C(N/N=C/c1cc(Cl)cc(Cl)c1O)c1ccc([N+](=O)[O-])cc1: YES
- O=C(N/N=C/c1cc(Cl)cc(Br)c1O)c1ccc(Cl)cc1: YES
- O=C(N/N=C/c1cc(C(F)(F)F)ccc1O)c1ccccc1: NO
- O=C(N/N=C/c1cc(Cl)cc(Cl)c1O)c1ccccc1Br: YES

====

inhibition of growth at 0.05 µg/mL by entry:
Test system: Leptosphaeria nodorum (LEPTNO)
methodDescription: In vitro fungitoxicity of hydrazones with and without copper towards Leptosphaeria nodorum (Example 26)
Format: cell-based
experimentalConditions: Parastagonospora nodorum, 72 h, compound 0.05 μg/mL, copper-minus medium, 72 h at 25° C.; read-out: LEPTNO % Inhn. Minus Copper Observed
testReadout: inhibition of growth at 0.05 µg/mL (%)

* O=C(N/N=C/c1ccc(C(F)(F)F)cc1O)c1ccccc1 | 1.7
* O=C(N/N=C/c1cc(Br)cc(Br)c1O)c1cccc(Cl)c1 | 13.5
* O=C(N/N=C/c1cc(Cl)cc(Br)c1O)c1cccc(Cl)c1 | 7.8
* COc1ccc(/C(C)=N/NC(=O)c2cccc(C)c2)c(O)c1 | 0
* C/C(=N\NC(=O)c1cccc(Cl)c1)c1cc(Cl)cc(Cl)c1O | 0.2

====

inhibition of growth at 0.05 µg/mL by entry:
System: Leptosphaeria nodorum (LEPTNO)
methodDescription: In vitro fungitoxicity of hydrazones with and without copper towards Leptosphaeria nodorum (Example 26)
Assay type: cell-based
experimentalConditions: Parastagonospora nodorum, 72 h, compound 0.05 μg/mL, copper-minus medium, 72 h at 25° C.; read-out: LEPTNO % Inhn. Minus Copper Observed
testReadout: inhibition of growth at 0.05 µg/mL (%)

• COc1ccc(C(=O)N/N=C/c2cc(Cl)cc(Cl)c2O)cc1OC = 5.3
• O=C(N/N=C/c1cc(Cl)cc(Cl)c1O)c1cccc(F)c1 = 17.5
• O=C(N/N=C/c1cc(Br)cc(Br)c1O)c1cc(Cl)ccc1Br = 0
• O=C(N/N=C/c1cc(Br)cc([N+](=O)[O-])c1O)c1ccccc1 = 0
• C/C(=N\NC(=O)c1cccc(F)c1)c1ccccc1O = 0

====

Test system: Leptosphaeria nodorum (LEPTNO)
methodDescription: In vitro fungitoxicity of hydrazones with and without copper towards Leptosphaeria nodorum (Example 26)
Assay type: cell-based
experimentalConditions: Parastagonospora nodorum, 72 h, copper-minus medium; test compound Concn. 0.05 μg/mL; 72 h at 25° C.; read-out: LEPTNO % Inhn. Minus Copper Observed
Rule: inhibition of growth at 0.05 µg/mL under 9% gives 0 (no), otherwise 1 (yes).

* O=C(N/N=C/c1cc(Cl)cc(Cl)c1O)c1ccc(Cl)cc1O | 1 (yes)
* C/C(=N\NC(=O)c1ccccc1Cl)c1cc(Br)cc(Br)c1O | 0 (no)
* O=C(N/N=C/c1cc(Cl)cc(Br)c1O)c1ccccc1C(F)(F)F | 0 (no)
* O=C(N/N=C/c1cc(C(F)(F)F)ccc1O)c1cccc(Cl)c1 | 0 (no)
* COc1cccc(/C(C)=N/NC(=O)c2ccccc2O)c1O | 0 (no)
* C/C(=N\NC(=O)c1ccccc1)c1cc(C(F)(F)F)ccc1O | 0 (no)
* C/C(=N\NC(=O)c1ccc(C(F)(F)F)cc1)c1cc(Cl)ccc1O | 1 (yes)
* O=C(N/N=C/c1c(Cl)ccc(Cl)c1O)c1ccccc1C(F)(F)F | 0 (no)
* COc1ccc(C(=O)N/N=C(\C)c2cc(Br)cc(Br)c2O)cc1 | 0 (no)
* O=C(N/N=C/c1cccc(Cl)c1O)c1ccccc1C(F)(F)F | 0 (no)
* C/C(=N\NC(=O)c1ccc(C(F)(F)F)cc1)c1cc(C(F)(F)F)ccc1O | 1 (yes)
* O=C(N/N=C/c1cc(C(F)(F)F)cc(C(F)(F)F)c1O)c1ccc(F)cc1 | 1 (yes)
* C/C(=N\NC(=O)c1cccc(C)c1)c1cc(C)ccc1O | 0 (no)
* COc1ccc(/C(C)=N/NC(=O)c2ccccc2Br)c(O)c1 | 0 (no)
* CSc1cc(Br)c(O)c(/C=N/NC(=O)c2ccccc2)c1 | 0 (no)
* Cc1ccc(C(=O)N/N=C/c2cc(Cl)cc(C(F)(F)F)c2O)c(O)c1 | 1 (yes)
* C/C(=N\NC(=O)c1ccc(C(F)(F)F)cc1)c1cc(Cl)cc(Cl)c1O | 0 (no)
* O=C(N/N=C/c1cc(C(F)(F)F)cc(Cl)c1O)c1ccccc1O | 1 (yes)

====

Test system: Phytophthora capsici
methodDescription: Fungitoxicity of copper-hydrazone mixtures of different ratios towards Phytophthora capsici (Example 36, Table 12)
Format: cell-based
experimentalConditions: mixture with hydrazone compound 16, Hydrazone:Cu ratio 1 to 62.5; read-out: CuCl2 EC50 (amount of CuCl2 in mixture at EC50)
testReadout: EC50 (µM)

* O.O.[Cl][Cu][Cl] [CuCl2, CuCl2.2H2O, reference compound] | 1.04

====

testReadout: melting point

- O=C(N/N=C/c1c(Cl)ccc(Cl)c1O)c1cccc([N+](=O)[O-])c1: 273 to 277 °C
- O=C(N/N=C/c1ccc(Cl)cc1O)c1ccc([N+](=O)[O-])cc1: 278 to 281 °C
- O=C(N/N=C/c1cccc(C(F)(F)F)c1O)c1ccc([N+](=O)[O-])cc1: 253 to 255 °C
- O=C(N/N=C(/c1cc(Cl)cc(Cl)c1O)C1CC1)c1ccccc1: 218 to 219 °C
- C/C(=N\NC(=O)c1ccccc1C)c1cc(C)ccc1O: 154 to 156 °C
- COc1ccc(/C(C)=N/NC(=O)c2ccccc2O)c(O)c1: 276 to 278 °C
- COc1ccc(C(=O)N/N=C/c2cc(Cl)cc(Cl)c2O)c(O)c1: 267 to 269 °C
- Cc1cccc(C(=O)N/N=C/c2cc(C(F)(F)F)cc(C(F)(F)F)c2O)c1: 210 to 213 °C
- O=C(N/N=C/c1c(O)cccc1Cl)c1ccccc1O: 277 to 280 °C

====

inhibition of growth at 0.05 µg/mL by entry:
System: Leptosphaeria nodorum (LEPTNO)
methodDescription: In vitro fungitoxicity of hydrazones with and without copper towards Leptosphaeria nodorum (Example 26)
Format: cell-based
experimentalConditions: Parastagonospora nodorum, 72 h, copper-minus medium; test compound Concn. 0.05 μg/mL; 72 h at 25° C.; read-out: LEPTNO % Inhn. Minus Copper Observed
testReadout: inhibition of growth at 0.05 µg/mL (%)

• O=C(N/N=C(/c1cc(Cl)cc(Cl)c1O)C1CC1)c1ccccc1 = 8.7
• O=C(N/N=C(/c1ccccc1O)C(F)(F)F)c1ccccc1 = 0
• O=C(N/N=C/c1c(O)cccc1Cl)c1cccc(Cl)c1 = 0
• COc1cc(O)c(/C(C)=N/NC(=O)c2ccccc2O)c(OC)c1 = 0
• O=C(N/N=C/c1cc(C(F)(F)F)ccc1O)c1cccc(F)c1 = 9.2

====

melting point by entry:
testReadout: melting point

• C/C(=N\NC(=O)c1ccc(C(F)(F)F)cc1)c1cccc([N+](=O)[O-])c1O = 267 to 278 °C
• O=C(N/N=C/c1c(C(F)(F)F)ccc(Cl)c1O)c1cccc(Cl)c1 = 242 to 245 °C
• COc1ccc(/C(C)=N/NC(=O)c2ccccc2C)c(O)c1OC = 150 to 152 °C
• O=C(N/N=C/c1cc(Cl)cc(Cl)c1O)c1ccc(Cl)cc1O = 276 to 279 °C
• C/C(=N\NC(=O)c1ccccc1Cl)c1cc(Br)cc(Br)c1O = 207 to 209 °C
• O=C(N/N=C/c1cc(Cl)ccc1O)c1ccc([N+](=O)[O-])cc1 = 259 to 262 °C
• C/C(=N\NC(=O)c1ccccc1Cl)c1cc(C(F)(F)F)ccc1O = 189 to 191 °C
• C/C(=N\NC(=O)c1cc2ccccc2cc1O)c1cc(Cl)cc(Cl)c1O = 312 to 315 °C
• Cc1ccc(C(=O)N/N=C/c2ccc(Cl)c(Cl)c2O)c(O)c1 = 271 to 278 °C
• C/C(=N\NC(=O)c1ccccc1Cl)c1cc(Br)ccc1O = 198 to 201 °C
• O=C(N/N=C/c1cc(C(F)(F)F)ccc1O)c1cccc(Cl)c1 = 187 to 197 °C
• Cc1ccc(C(=O)N/N=C/c2c(C(F)(F)F)ccc(Cl)c2O)cc1 = 216 to 218 °C
• COc1ccc(C(=O)N/N=C(\C)c2cc(Br)cc(Br)c2O)cc1 = 247 to 248 °C
• O=C(N/N=C/c1cc(C(F)(F)F)cc(C(F)(F)F)c1O)c1cccc(F)c1 = 240 to 242 °C
• C/C(=N\NC(=O)c1ccc(C)cc1)c1cc(Br)ccc1O = 245 to 248 °C
• COc1ccc(C(=O)N/N=C(\C)c2cc(Cl)cc(Cl)c2O)c(O)c1 = 310 to 312 °C
• COc1ccc(O)c(/C(C)=N/NC(=O)c2ccc(C)cc2)c1 = 159 to 162 °C
• O=C(N/N=C/c1cc(Br)ccc1O)c1cc(Cl)ccc1Cl = 196 to 202 °C
• C/C(=N\NC(=O)c1ccc(Cl)cc1O)c1cc(Cl)cc(Cl)c1O = 314 to 317 °C
